# assayComment: Photometric activity determination of 7β-HSDH and mutants (decrease in absorbance at 340 nm, DHCA reduction with NADPH)
# Format: biochemical
# conditionParameters: Table 4, variants modified at position 64; 10 mM DHCA, NADPH, KPi pH 8.0
measurementLabel: Volumetric activity (U/ml)
Report the figure in U/ml without appending any unit label.

# input Recall and state the measured Volumetric activity for 7β-HSDH [R64F]: 7β-HSDH mutant, R in position 64 replaced by F (protein, UniProt A4ECA9 1-263, looked up, variant R64F) 7beta-hydroxysteroid …: MNLREKYGEWGLILGATEGVGKAFCEKIAAGGMNVVMVGRREEKLNVLAGEIRETYGVETKVVFADFSQPGAAETVFAATEGLDMGFMSYVACLHSFGKIQDTPWEKHEAMINVNVVTFLKCFHHYMRIFAAQDRGAVINVSSMTGISSSPWNGQYGAGKAFILKMTEAVACECEGTGVDVEVITLGTTLTPSLLSNLPGGPQGEAVMKIALTPEECVDEAFEKLGKELSVIAGQRNKDSVHDWKANHTEDEYIRYMGSFYRD .
# output 216

# input Recall and state the measured Volumetric activity for 7β-HSDH [R64T]: 7β-HSDH mutant, R in position 64 replaced by T (protein, UniProt A4ECA9 1-263, looked up, variant R64T) 7beta-hydroxysteroid …: MNLREKYGEWGLILGATEGVGKAFCEKIAAGGMNVVMVGRREEKLNVLAGEIRETYGVETKVVTADFSQPGAAETVFAATEGLDMGFMSYVACLHSFGKIQDTPWEKHEAMINVNVVTFLKCFHHYMRIFAAQDRGAVINVSSMTGISSSPWNGQYGAGKAFILKMTEAVACECEGTGVDVEVITLGTTLTPSLLSNLPGGPQGEAVMKIALTPEECVDEAFEKLGKELSVIAGQRNKDSVHDWKANHTEDEYIRYMGSFYRD .
# output 450.5
